# Read-out: Lipase C (LIPC), LIPC (gene 3990)
# experiment-notes: LTEA_HepaRG_LIPC: Life Technologies and Expression Analysis (LTEA) Assay for Lipase C (LIPC) using HepaRG (AID 2283514)
# experimental-parameters: mRNA level, 48 h; actives raise or lower the signal
Calls of active or inactive are those of the source. How the source made its calls: active means hit-call score of the fitted dose curve at least 0.9, where 1 is the maximum; inactive means score below 0.9.
endpoint-label: AC50

Examples from the recorded data:
- O=S(=O)(O)C(F)(F)C(F)(F)C(F)(F)C(F)(F)F: inactive
- Clc1ccc(C(c2ccccc2Cl)C(Cl)(Cl)Cl)cc1 (stereo not drawn): 84.4 µM (active)
- Cc1cccc(C)c1N: inactive
- ClC1=C(Cl)[C@]2(Cl)[C@@H]3[C@@H]4C[C@@H]([C@H]5O[C@@H]45)[C@@H]3[C@@]1(Cl)C2(Cl)Cl: inactive
- O=C(NC(=O)c1cc(F)c(F)cc1Cl)Nc1cc(F)ccc1N1CCC(C(=O)O)CC1: inactive

Entry `Oc1c(Cl)c(Cl)c(Cl)c(Cl)c1Cl` ; AC50 = 4.24 µM (active)

Entry `Oc1ccc(C(c2ccc(O)cc2)(C(F)(F)F)C(F)(F)F)cc1` ; AC50 = inactive

Entry `CCSC(=O)N(CC)C1CCCCC1` ; AC50 = inactive

Entry `CC(C)(c1ccccc1)c1ccc(O)cc1` ; AC50 = 83.6 µM (active)

Entry `Clc1ccc(C(Cl)(Cl)Cl)cc1` ; AC50 = inactive

Entry `CC1=C2C[C@H]3[C@@H](CC=C4C[C@@H](O)CC[C@@]43C)[C@@H]2CC[C@]12O[C@@H]1C[C@H](C)CN[C@H]1[C@H]2C` ; AC50 = inactive

Entry `Cc1cc(-c2ccc(N)c(C)c2)ccc1N` ; AC50 = inactive

Entry `COc1ccc(O)c(C(C)(C)C)c1` ; AC50 = inactive

Cited source for all entries: PubChem BioAssay (EPA / NIEHS)
